B1: TFE3 (parent)
chain: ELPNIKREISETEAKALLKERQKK

variants of: B1; experiment: protein stability index of a GFP-peptide fusion (GPS, HEK-293T) (PSI 1-6); higher = more stable; conditions: c terminus: a fixed tail appended;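 note: lentivirally expressed fusions sorted by FACS into six bins by GFP to DsRed ratio, PSI derived from sequencing read proportions per bin multiplied by bin number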
Below, each entry is listed alongside its reported protein stability index.
value.kind: protein stability index

[[record]]
variant_label = "K24M"
measured_value = 2.19

[[record]]
variant_label = "R21N"
measured_value = 2.91

[[record]]
variant_label = "R7K"
measured_value = 2.44

[[record]]
variant_label = "E1K"
measured_value = 3.13

[[record]]
variant_label = "P3T"
measured_value = 3.57

[[record]]
variant_label = "K19F"
measured_value = 2.65

[[record]]
variant_label = "E8F"
measured_value = 3.52

[[record]]
variant_label = "E8I"
measured_value = 3.39

[[record]]
variant_label = "R21H"
measured_value = 2.63

[[record]]
variant_label = "R21F"
measured_value = 2.38

[[record]]
variant_label = "L17Q"
measured_value = 2.56

[[record]]
variant_label = "L2T"
measured_value = 4.71

[[record]]
variant_label = "A14I"
measured_value = 2.46

[[record]]
variant_label = "K15E"
measured_value = 1.86

[[record]]
variant_label = "K23I"
measured_value = 2.34

[[record]]
variant_label = "K15W"
measured_value = 2.42

[[record]]
variant_label = "E1D"
measured_value = 2.65

[[record]]
variant_label = "A14G"
measured_value = 3

[[record]]
variant_label = "I9L"
measured_value = 2.66

[[record]]
variant_label = "L2G"
measured_value = 5.23

[[record]]
variant_label = "R7I"
measured_value = 3.2

[[record]]
variant_label = "I9N"
measured_value = 3.19

[[record]]
variant_label = "R7N"
measured_value = 2.58

[[record]]
variant_label = "K6L"
measured_value = 2.83

[[record]]
variant_label = "E11Y"
measured_value = 3.16

[[record]]
variant_label = "R21M"
measured_value = 2.25

[[record]]
variant_label = "A16M"
measured_value = 2.63

[[record]]
variant_label = "A14F"
measured_value = 2.83

[[record]]
variant_label = "E1H"
measured_value = 2.66

[[record]]
variant_label = "E11W"
measured_value = 2.91

[[record]]
variant_label = "S10K"
measured_value = 3

[[record]]
variant_label = "Q22N"
measured_value = 2.5

[[record]]
variant_label = "E20F"
measured_value = 2.03

[[record]]
variant_label = "L18C"
measured_value = 2.6

[[record]]
variant_label = "E20Y"
measured_value = 2.5

[[record]]
variant_label = "K24W"
measured_value = 2.44

[[record]]
variant_label = "R7T"
measured_value = 3.51

[[record]]
variant_label = "I5Y"
measured_value = 4.3

[[record]]
variant_label = "K15N"
measured_value = 2.22

[[record]]
variant_label = "E13I"
measured_value = 3.33

[[record]]
variant_label = "K24D"
measured_value = 2.91

[[record]]
variant_label = "L17S"
measured_value = 2.32

[[record]]
variant_label = "K6H"
measured_value = 2.49

[[record]]
variant_label = "K24F"
measured_value = 2.03

[[record]]
variant_label = "L17V"
measured_value = 3.14

[[record]]
variant_label = "I9Q"
measured_value = 4.83


These entries and their values trace back to the supplement of paper PMC10567573.
